# method_description: Acute pharmacokinetic study in the rat, single administration at equimolecular doses
# Assay type: in vivo
# cond: plasma, single administration, read-out: time of plasmatic concentration peak (converted)
value_kind: Tmax
Don't forget the unit after the number, please.

Task: Return reported Tmax. Input molecule: O=C(Nc1c(Br)cc(Br)cc1CNC1CCC(O)CC1)c1ccccc1 (stereo not shown)
Result: 30 min
